# System: MCF7 breast
# test.method.notes: NCI-60 one-dose screen, 48 h (100 = growth as untreated, 0 = no growth, -100 = all killed)
# applied.conditions: 10 µM
The panel holds about 83,000 compounds, 20% with a hit somewhere; the sample as a whole holds those more often. The source made the active and inactive calls. Rule for the calls: active = growth percent below 10; inactive = the rest.

compound	growth
O=C(/C=C/c1ccc(Cl)cc1Cl)c1nc2ccccc2n1Cc1ccc(Br)cc1	17.1% (inactive)
COc1cc2cc(C(=O)N3C[C@@H](CCl)c4c3cc(OC(=O)N3CCN(C)[C@@H]5CSSC[C@@H]53)c3ccccc43)[nH]c2c(OC)c1OC	-8.94% (active)
CC(=O)Oc1ccccc1C(=O)NC([Se])=NC1CCCCC1	1.18% (active)
CCOC(=O)C1=C(Nc2ccccc2)C(=O)OC12C(=O)Nc1ccccc12 (stereo not given)	95.6% (inactive)
O=C(/C=C/c1ccc(Cl)cc1)c1nc2ccccc2n1Cc1ccc(F)cc1	9.25% (active)
